# TARGET_DESC: T1, Peptide F (monkey PAR-2), N-terminal biotinylated (Monkey (Macaca mulatta), N-terminal biotin via G4S linker)
# T1 construct: also called Peptide F N-Term
# ASSAY_SUMMARY: peptide ELISA titration
Reported pEC50 values follow for various binders
Bear in mind: pEC50 is minus log10 of a mol/L concentration; give just that figure.

BINDER	pEC50
H4H583P (antibody, human IgG4, V domains shown, also called H1H583P variable regions) VH: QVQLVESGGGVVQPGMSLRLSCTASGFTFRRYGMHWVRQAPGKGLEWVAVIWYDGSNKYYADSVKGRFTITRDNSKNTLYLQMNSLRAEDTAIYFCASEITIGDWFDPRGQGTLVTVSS VL: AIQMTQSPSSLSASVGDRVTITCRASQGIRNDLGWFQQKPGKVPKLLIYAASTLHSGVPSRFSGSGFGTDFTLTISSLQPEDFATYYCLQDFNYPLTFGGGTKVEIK	10.89

Prompt: Give a short answer stating reported pEC50 for H4H578P (antibody, human IgG4, V domains shown, also called H1H578P variable regions) VH: QVQLVESGGGVVQPGMSLRLSCAASGFTFRRYGMHWVRQAPGKGLEWVAVIWYDGSNKYYVDSVKGRFTISRDNSKNTLYLQMNSLRAEDTAVYYCASEITVGDWFDPWGQGTLVTVSS VL: AIQMTQSPSSLSASVGDRVTITCRASQGIRNDLGWYQQKPGKAPKLLIYAASSLHSGVPSRFSGSGSGTDFTLTISSLQPEDFATYYCLQDFNYPLTFGGGTKVEIK .
Response: 10.44
